biological target: H1 receptor (Cavia porcellus)
Sequence (P31389 whole entry): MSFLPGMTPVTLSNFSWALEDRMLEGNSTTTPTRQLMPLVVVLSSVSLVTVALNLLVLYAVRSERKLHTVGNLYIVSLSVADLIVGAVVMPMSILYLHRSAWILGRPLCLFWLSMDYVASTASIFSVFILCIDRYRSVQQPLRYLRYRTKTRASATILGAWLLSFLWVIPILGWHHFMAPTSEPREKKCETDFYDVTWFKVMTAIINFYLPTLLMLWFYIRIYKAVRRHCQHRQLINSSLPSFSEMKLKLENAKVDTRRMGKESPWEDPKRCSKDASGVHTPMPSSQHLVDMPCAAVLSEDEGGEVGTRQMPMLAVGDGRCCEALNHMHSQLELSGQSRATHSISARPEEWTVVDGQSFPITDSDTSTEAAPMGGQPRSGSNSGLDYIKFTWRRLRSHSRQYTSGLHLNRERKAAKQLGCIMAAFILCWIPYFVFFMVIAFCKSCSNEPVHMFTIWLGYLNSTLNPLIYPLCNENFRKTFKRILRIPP
READOUT TYPE: pKi
# pKi: negative log10 of molar concentration; output just the value

Ask | pKi for `O=C1CC2(CCCCC2)Oc2cc(OCCCN3CCC(c4noc5cc(F)ccc45)CC3)ccc21` ?
Reply | 6.04

Ask | pKi for `O=C1CC2(CCCCC2)Oc2cc(OCCCCN3CCC(c4noc5cc(F)ccc45)CC3)ccc21` ?
Reply | 6.09

Ask | pKi for `CC1(C)CC(=O)c2ccc(OCCCCN3CCC(c4noc5cc(F)ccc45)CC3)cc2O1` ?
Reply | 6.03

Ask | pKi for `O=C1CC2(CCCC2)Oc2cc(OCCCCN3CCC(c4noc5cc(F)ccc45)CC3)ccc21` ?
Reply | 6.11

----------
READOUT TYPE: melting point

Ask | melting point for `COc1ccccc1N1CCN(CCCCOc2ccc3c(c2)OC2(CCCC2)CC3=O)CC1` ?
Reply | 96 to 98 °C

Ask | melting point for CC1Oc2cc(OCCCCN3CCC(c4noc5cc(F)ccc45)CC3)ccc2C(=O)C1C (stereo not shown) ?
Reply | 82 to 84 °C

Ask | melting point for `O=C1CC2(CCCCC2)Oc2cc(OCCCCN3CCC(c4nsc5ccccc45)CC3)ccc21` ?
Reply | 129 to 130 °C

Ask | melting point for `O=C1CC2(CCCCC2)Oc2cc(OCCCCN3CCN(c4cccc(Cl)c4Cl)CC3)ccc21` ?
Reply | 119 to 121 °C

----------
target: 5-HT1A receptor (Homo sapiens, UniProt P08908); experiment: Intrinsic activity, FLIPR calcium assay, HEK293/5-HT1A; details: 5-HT1A, antagonist mode
Sequence (P08908 whole entry): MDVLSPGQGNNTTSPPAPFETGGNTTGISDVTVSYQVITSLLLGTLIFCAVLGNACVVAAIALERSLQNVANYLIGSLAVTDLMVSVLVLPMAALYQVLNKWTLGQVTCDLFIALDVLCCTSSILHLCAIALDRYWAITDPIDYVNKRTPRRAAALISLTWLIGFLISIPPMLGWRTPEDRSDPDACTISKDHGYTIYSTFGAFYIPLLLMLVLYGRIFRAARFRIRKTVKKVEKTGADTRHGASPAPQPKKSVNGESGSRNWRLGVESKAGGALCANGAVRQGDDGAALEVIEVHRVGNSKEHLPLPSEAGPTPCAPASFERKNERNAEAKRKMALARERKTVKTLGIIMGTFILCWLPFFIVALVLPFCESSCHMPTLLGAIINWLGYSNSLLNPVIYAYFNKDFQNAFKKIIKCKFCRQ
READOUT TYPE: IC50 (nM)
Return type: number; implicit unit nM.

Ask | IC50 for CC1(C)CC(=O)c2ccc(OCCCCN3CCC(c4noc5cc(F)ccc45)CC3)cc2O1 [Compound 6j] ?
Reply | 201

----------
I'd be grateful if you could share measured pKi for these entries.
molecular target: D2 receptor (Rattus norvegicus, UniProt P61169); experiment: D2 receptor radioligand binding (3H-spiperone); conditions: Receptor Affinity Ki ± SEM D2, rat striatum, 3H-spiperone; mean ± SEM of three experiments
Sequence (P61169 whole entry): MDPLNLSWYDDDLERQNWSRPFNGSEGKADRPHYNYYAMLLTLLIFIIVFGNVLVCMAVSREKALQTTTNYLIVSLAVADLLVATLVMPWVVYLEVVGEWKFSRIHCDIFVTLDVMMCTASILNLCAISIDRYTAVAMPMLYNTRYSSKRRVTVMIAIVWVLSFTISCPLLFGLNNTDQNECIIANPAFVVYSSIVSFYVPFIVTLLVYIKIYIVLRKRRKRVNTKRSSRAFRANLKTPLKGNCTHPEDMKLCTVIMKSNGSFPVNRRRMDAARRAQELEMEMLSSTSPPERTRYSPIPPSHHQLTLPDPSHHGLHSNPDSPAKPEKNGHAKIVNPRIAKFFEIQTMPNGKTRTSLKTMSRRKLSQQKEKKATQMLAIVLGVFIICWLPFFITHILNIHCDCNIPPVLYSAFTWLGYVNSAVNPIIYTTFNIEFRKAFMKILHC
# pKi: negative log10 of molar concentration; output just the value

Ask | pKi for `O=C1CC2(CCCC2)Oc2cc(OCCCCN3CCC(c4noc5cc(F)ccc45)CC3)ccc21` ?
Reply | 7.80

Ask | pKi for `CC1(C)CC(=O)c2ccc(OCCCCN3CCN(c4ccccc4F)CC3)cc2O1` ?
Reply | 6.11

Ask | pKi for CC1Oc2cc(OCCCCN3CCC(c4noc5cc(F)ccc45)CC3)ccc2C(=O)C1C (centres unmarked) ?
Reply | 7.55

Ask | pKi for `O=C1CC2(CCCCC2)Oc2cc(OCCCN3CCC(c4noc5cc(F)ccc45)CC3)ccc21` ?
Reply | 7.74

Ask | pKi for `COc1ccccc1N1CCN(CCCOc2ccc3c(c2)OC(C)(C)CC3=O)CC1` ?
Reply | 5.50

Ask | pKi for `O=C1CC2(CCCCC2)Oc2cc(OCCCCN3CCN(c4cccc(Cl)c4Cl)CC3)ccc21` ?
Reply | 7.09

Ask | pKi for `CC1(C)CC(=O)c2ccc(OCCCCN3CCN(c4cccc(C(F)(F)F)c4)CC3)cc2O1` ?
Reply | 5.95

Ask | pKi for `CC1(C)CC(=O)c2ccc(OCCCCN3CCN(c4ccccc4)CC3)cc2O1` ?
Reply | 6.26

Ask | pKi for `CC1(C)CC(=O)c2ccc(OCCCCN3CCN(c4nsc5ccccc45)CC3)cc2O1` ?
Reply | 7.58

Ask | pKi for `CC1(C)CC(=O)c2ccc(OCCCCN3CCN(c4ccccn4)CC3)cc2O1` ?
Reply | 5.34

Ask | pKi for `Cc1cccc(N2CCN(CCCCOc3ccc4c(c3)OC3(CCCCC3)CC4=O)CC2)c1C` ?
Reply | 6.81

Ask | pKi for `CC1(C)CC(=O)c2ccc(OCCCCN3CCC(c4noc5cc(F)ccc45)CC3)cc2O1` ?
Reply | 7.92

Ask | pKi for `CC1(C)CC(=O)c2ccc(OCCCCN3CCN(Cc4ccc5c(c4)OCO5)CC3)cc2O1` ?
Reply | 5.94

Ask | pKi for `COc1ccccc1N1CCN(CCCOc2ccc3c(c2)OC2(CCCCC2)CC3=O)CC1` ?
Reply | 5.69

Ask | pKi for `CC1(C)CC(=O)c2ccc(OCCCCN3CCN(c4cccc5sccc45)CC3)cc2O1` ?
Reply | 7.37

Ask | pKi for Cc1cc2c(cc1OCCCCN1CCC(c3noc4cc(F)ccc34)CC1)OCCC2=O [Compound 13c] ?
Reply | 7.59

Ask | pKi for `O=C1CC2(CCCCC2)Oc2cc(OCCCCN3CCC(c4noc5cc(F)ccc45)CC3)ccc21` ?
Reply | 7.77

----------
biological target: 5-HT2A receptor (Homo sapiens, UniProt P28223); experiment: Intrinsic activity, FLIPR calcium assay, HEK293/5-HT2A
Sequence (P28223 whole entry): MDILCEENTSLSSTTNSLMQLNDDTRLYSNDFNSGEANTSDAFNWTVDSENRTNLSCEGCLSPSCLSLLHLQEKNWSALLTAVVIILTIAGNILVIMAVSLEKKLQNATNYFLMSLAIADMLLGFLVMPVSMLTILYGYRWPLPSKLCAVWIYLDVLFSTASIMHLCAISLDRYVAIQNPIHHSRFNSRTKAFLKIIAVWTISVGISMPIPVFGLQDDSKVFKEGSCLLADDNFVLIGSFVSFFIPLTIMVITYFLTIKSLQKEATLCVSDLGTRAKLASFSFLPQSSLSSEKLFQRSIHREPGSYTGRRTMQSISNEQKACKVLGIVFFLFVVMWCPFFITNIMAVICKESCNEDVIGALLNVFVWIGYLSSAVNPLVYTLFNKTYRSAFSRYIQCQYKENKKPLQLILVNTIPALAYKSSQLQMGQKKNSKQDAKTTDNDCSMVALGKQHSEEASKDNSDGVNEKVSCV
READOUT TYPE: pIC50
# pIC50: negative log10 of molar concentration; output just the value

Ask | pIC50 for CC1(C)CC(=O)c2ccc(OCCCCN3CCC(c4noc5cc(F)ccc45)CC3)cc2O1 [Compound 6j] ?
Reply | 6.71

----------
assay: in vivo; conditions: mouse
READOUT TYPE: LD50 at 24 h

Ask | LD50 at 24 h for `CC1(C)CC(=O)c2ccc(OCCCCN3CCC(c4noc5cc(F)ccc45)CC3)cc2O1` ?
Reply | > 2000 mg/kg

----------
I'd be grateful if you could share measured melting point for these entries.

Ask | melting point for CC1CC(=O)c2ccc(OCCCCN3CCC(c4noc5cc(F)ccc45)CC3)c(Cl)c2O1 (stereo not drawn) [Compound 16b] ?
Reply | 99 to 101 °C

Ask | melting point for `COc1ccccc1N1CCN(CCCOc2ccc3c(c2)OC2(CCCCC2)CC3=O)CC1` ?
Reply | 105 to 107 °C

Ask | melting point for `O=C1CC2(CCCCC2)Oc2cc(OCCCN3CCC(c4noc5cc(F)ccc45)CC3)ccc21` ?
Reply | 96 to 98 °C

Ask | melting point for `CC1(C)CC(=O)c2ccc(OCCCCN3CCN(c4ccccc4F)CC3)cc2O1` ?
Reply | 135 to 137 °C

Ask | melting point for CC1CC(=O)c2ccc(OCCCCN3CCC(c4noc5cc(F)ccc45)CC3)cc2O1 (stereo not drawn) [Compound 16a] ?
Reply | 95 to 97 °C

Ask | melting point for `CC1(C)CC(=O)c2ccc(OCCCCN3CCN(c4ccccn4)CC3)cc2O1` ?
Reply | 127 to 129 °C

Ask | melting point for `CC1(C)CC(=O)c2ccc(OCCCCN3CCN(c4ncccn4)CC3)cc2O1` ?
Reply | 128 to 131 °C

Ask | melting point for `CC1(C)CC(=O)c2ccc(OCCCCN3CCN(Cc4ccc5c(c4)OCO5)CC3)cc2O1` ?
Reply | 112 to 114 °C

Ask | melting point for `COc1ccccc1N1CCN(CCCCOc2ccc3c(c2)OC(C)(C)CC3=O)CC1` ?
Reply | 128 to 130 °C
